MEASURED_TARGET: CDK2/CyclinE1 (Homo sapiens (Human))
MEASUREMENT_DESCRIPTION: CDK2/CyclinE1 kinase inhibitory activity (Caliper mobility shift)
CONDITION_NOTES: read-out: CDK2/Cyclin El IC50
pIC50: −log10 of the molar value.
For each record, write down the corresponding pIC50.

Input line: For the record Cn1cc(S(=O)(=O)N2CCC(Nc3ncc(C#N)c(O[C@@H]4CCC(F)(F)C[C@]4(C)O)n3)CC2)cn1 (relative stereo) [Example 7b] , what value of pIC50 is listed for CDK2/CyclinE1 (Homo sapiens (Human))?
Output line: 7.00 to 8.00

Input line: For the record C=Cc1cnc(Nc2ccc(S(N)(=O)=O)cc2)nc1OC1CCCC1O (single isomer, unassigned) [Example 155a] , what value of pIC50 is listed for CDK2/CyclinE1 (Homo sapiens (Human))?
Output line: > 8.00

Input line: For the record CNS(=O)(=O)c1ccc(Nc2ncc(C(F)(F)F)c(O[C@H]3CCCOC[C@H]3O)n2)cc1 (single isomer, unassigned) [Example 103b] , what value of pIC50 is listed for CDK2/CyclinE1 (Homo sapiens (Human))?
Output line: > 8.00
